Exercise: for every item that follows, state its recorded pKi.
- Target of assay: UniProt P0A884
- Sequence (P0A884 whole entry): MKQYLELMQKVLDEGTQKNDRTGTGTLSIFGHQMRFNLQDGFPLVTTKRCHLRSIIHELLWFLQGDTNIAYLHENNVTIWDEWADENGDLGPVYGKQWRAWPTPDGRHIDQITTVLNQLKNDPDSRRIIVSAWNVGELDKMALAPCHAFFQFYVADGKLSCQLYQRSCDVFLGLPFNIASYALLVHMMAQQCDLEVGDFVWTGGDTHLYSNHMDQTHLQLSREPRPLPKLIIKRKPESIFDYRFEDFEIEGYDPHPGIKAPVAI
- Method notes: Thymidylate synthase inhibition, enzymatic assay (Michaelis-Menten kinetics) on tether-free analogs
- Type: biochemical
- Condition info: untethered versions of selected ligand candidates, Example 6
- Procedure: TS is an ideal validating target for several reasons. […] Second, a simple colorimetric assay exists for determining whether a potential ligand binds to TS. […] In one illustrative example, the tethering experiment is performed in the presence of a known substrate. […] R^c portion of the ligand fragment was determined using Michaelis-Mention kinetics. The inhibition constants of the untethered versions of the selected ligand candidates were determined.
pKi: −log10 of the molar value.

Which pKi reading was recorded for the compound O=C(O)COc1ccc(/C=N/OCCCO/N=C/c2ccc(S(=O)(=O)N3CCCC3C(=O)O)cc2)cc1 (centres unmarked) ?
~4.26

Which pKi reading was recorded for the compound O=C(O)COc1ccc(/C=N\OCCCCCCO/N=C/c2ccc(S(=O)(=O)N3CCCC3C(=O)O)cc2)cc1 (centres unmarked) ?
~4.40

Data origin: patent US6998233B2
